# Lookup of reported pIC50 keyed by entry
target_of_assay: Recombinant STAT6 protein (STAT6 (W123-T658)) (Homo sapiens, UniProt P42226)
Construct: Recombinant STAT6 protein (STAT6 (W123-T658))
Sequence (P42226 123-658): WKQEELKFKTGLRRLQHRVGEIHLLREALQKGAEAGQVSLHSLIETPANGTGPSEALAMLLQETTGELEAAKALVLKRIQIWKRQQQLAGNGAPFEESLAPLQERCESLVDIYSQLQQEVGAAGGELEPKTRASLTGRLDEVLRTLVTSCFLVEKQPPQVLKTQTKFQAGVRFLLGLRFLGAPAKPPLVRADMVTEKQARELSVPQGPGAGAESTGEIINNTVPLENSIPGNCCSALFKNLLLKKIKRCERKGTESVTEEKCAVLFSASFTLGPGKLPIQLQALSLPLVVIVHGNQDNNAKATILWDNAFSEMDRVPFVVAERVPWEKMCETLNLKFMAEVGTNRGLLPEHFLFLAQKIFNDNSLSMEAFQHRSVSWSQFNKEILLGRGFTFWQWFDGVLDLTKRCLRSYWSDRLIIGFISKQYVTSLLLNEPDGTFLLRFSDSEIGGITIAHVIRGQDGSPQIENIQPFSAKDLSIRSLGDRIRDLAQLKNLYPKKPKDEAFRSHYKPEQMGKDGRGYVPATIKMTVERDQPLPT
protocol_summary: STAT6 Fluorescence Polarization (FP) Assay
Assay type: binding
stated_conditions: STAT6 (W123-T658) 250 nM, probe 5-FAM-Ap[…]-NH2 2 nM, 45-minute incubation; read-out: STAT6 (FP assay IC50 class)
Protocol: STAT6 Fluorescence Polarization (FP) Assay An FP assay was developed to determine IC50 values for test substances. […] Reaction components were mixed, and FP was measured after 45-minute incubation at room temperature using a Tecan Spark multimode plate reader. FP signal (mP) was plotted against the log concentration of the test substances and IC50 values were calculated by nonlinear regression analysis using GraphPad Prism software. […]
pIC50: −log10 of the molar value.

Consider the reported pIC50 for these compounds:
compound	assay_result
COc1cncc([C@H]2CN(C(=O)[C@@H]3CC[C@@H]4CCC[C@H](NC(=O)c5cc6cc([C@@H](F)P(=O)(O)O)ccc6s5)C(=O)N43)C3(CC3)[C@@H]2C#N)c1 (single isomer, unassigned)	5.52 to 6.52
N#C[C@@H]1[C@@H](c2cccnc2)CN(C(=O)[C@@H]2CC[C@@H]3CCCC[C@H](NC(=O)c4cc5cc([C@H](F)P(=O)(O)O)ccc5s4)C(=O)N32)C12CC2 (single isomer, unassigned)	≥ 6.52

Supply pIC50 measured with Recombinant STAT6 protein (STAT6 (W123-T658)) (Homo sapiens, UniProt P42226) for O=C(N[C@H]1CCCC[C@H]2CC[C@@H](C(=O)N3CCC(c4cccnc4)C3)N2C1=O)c1ccc2ccc(C(F)P(=O)(O)O)cc2c1 (stereo partly drawn) .
5.52 to 6.52

Origin of measurements: patent US20250215029A1
